Cited source for all entries: ChEMBL document CHEMBL3137667

TEST_CONTEXT: human, serum;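 also: human clinical chemistry: moderate when serum ALT or AST reaches 6× upper normal limit or alkaline phosphatase 1.7×, value counts indexed literature references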
MEASURED_PROPERTY: Hepatotoxicity (moderate)

Field: example entries. Status: answers known.
CCN1CCCC1CNC(=O)c1cc(S(=O)(=O)CC)c(N)cc1OC (stereo not given) [AMISULPRIDE]	1
CCOc1nc2cccc(C(=O)O)c2n1Cc1ccc(-c2ccccc2-c2nnn[nH]2)cc1	3
O=C1OCCN1/N=C/c1ccc([N+](=O)[O-])o1	1
CCOC(=O)C1=C(C)NC(C)=C(C(=O)OC)C1c1cccc(Cl)c1Cl (stereo not given)	3

Then there is this molecule:
Report Hepatotoxicity (moderate) for Nc1ccc(O)c(C(=O)O)c1 please. 14
